Test system: WI-38 (human fetal lung fibroblast)
PROTOCOL_DESCRIPTION: MTT-test WI-38
Type: cell-based
pIC50: −log10 of the molar value.

SMILES_INPUT | pIC50
CC(C)(C)c1cc(C2=NN=Cc3ccccc3[O][Sn]([C](C)(C)C)([C](C)(C)C)[O]2)cc(C(C)(C)C)c1O | 4.58
C[CH2][Sn]1([CH2]C)[O]C(c2cc(C(C)(C)C)c(O)c(C(C)(C)C)c2)=NN=Cc2ccccc2[O]1 | 5.24
CC(C)(C)c1cc(C2=NN=Cc3ccccc3[O][Sn]([c]3ccccc3)([c]3ccccc3)[O]2)cc(C(C)(C)C)c1O | 4.28
CC(C)(C)c1cc(C2=NN=Cc3ccccc3[O][Sn]([CH3])([CH3])[O]2)cc(C(C)(C)C)c1O | 5.02

###

PROTOCOL_DESCRIPTION: Luminescence / photophysical properties
Format: physicochemical
MEASUREMENT_PARAMETERS: DMSO, 10 µM; λex = 365 nm
Procedure: Their quantum yields reached 20%, which together with their high absorption (Table 4) makes them highly emissive even in powders. The registration of luminescence spectra of powders and solutions in the visible range as well as the measurement of quantum yields were carried out with Horiba FluoroMax Plus, with xenon lamp as excitation source at room temperature; excitation was performed through a ligand (λex = 365 nm). […]
Param label: returns criterion met when Quantum Yield, DMSO Solution 10 µM < 20%, returns criterion not met otherwise, including exact equality.

COMPOUND | LABEL
CC(C)(C)c1cc(C2=NN=Cc3ccccc3[O][Sn]([CH3])([CH3])[O]2)cc(C(C)(C)C)c1O [Compound 2, Me2SnL] | criterion met
CC(C)(C)c1cc(C2=NN=Cc3ccccc3[O][Sn]([c]3cc(C(C)(C)C)c(O)c(C(C)(C)C)c3)([c]3cc(C(C)(C)C)c(O)c(C(C)(C)C)c3)[O]2)cc(C(C)(C)C)c1O [Compound 7, (2,6-Di-tert-butylphenol)2SnL] | criterion not met
C[CH2][Sn]1([CH2]C)[O]C(c2cc(C(C)(C)C)c(O)c(C(C)(C)C)c2)=NN=Cc2ccccc2[O]1 [Compound 3, Et2SnL] | criterion met
CCC[CH2][Sn]1([CH2]CCC)[O]C(c2cc(C(C)(C)C)c(O)c(C(C)(C)C)c2)=NN=Cc2ccccc2[O]1 [Compound 4, Bu2SnL] | criterion not met
CC(C)(C)c1cc(C2=NN=Cc3ccccc3[O][Sn]([c]3ccccc3)([c]3ccccc3)[O]2)cc(C(C)(C)C)c1O [Compound 6, Ph2SnL] | criterion not met

###

Below, each entry is listed with its recorded ε (λmax).
PROTOCOL_DESCRIPTION: Luminescence / photophysical properties
Assay type: physicochemical
MEASUREMENT_PARAMETERS: at absorption λmax

SMILES_INPUT | ε (λmax)
CC(C)(C)c1cc(C2=NN=Cc3ccccc3[O][Sn]([C](C)(C)C)([C](C)(C)C)[O]2)cc(C(C)(C)C)c1O | 9920 M⁻¹ cm⁻¹
C[CH2][Sn]1([CH2]C)[O]C(c2cc(C(C)(C)C)c(O)c(C(C)(C)C)c2)=NN=Cc2ccccc2[O]1 | 14,020 M^−1·cm^−1
CC(C)(C)c1cc(C2=NN=Cc3ccccc3[O][Sn]([CH3])([CH3])[O]2)cc(C(C)(C)C)c1O | 13,070 M^−1·cm^−1
CC(C)(C)c1cc(C2=NN=Cc3ccccc3[O][Sn]([c]3cc(C(C)(C)C)c(O)c(C(C)(C)C)c3)([c]3cc(C(C)(C)C)c(O)c(C(C)(C)C)c3)[O]2)cc(C(C)(C)C)c1O | 13,270 M^−1·cm^−1
CC(C)(C)c1cc(C2=NN=Cc3ccccc3[O][Sn]([c]3ccccc3)([c]3ccccc3)[O]2)cc(C(C)(C)C)c1O | 13,450 M^−1·cm^−1
CCC[CH2][Sn]1([CH2]CCC)[O]C(c2cc(C(C)(C)C)c(O)c(C(C)(C)C)c2)=NN=Cc2ccccc2[O]1 | 5950 M⁻¹ cm⁻¹

###

Listing: pIC50 of selected compounds
Tested on: formation of advanced glycation end products (AGEs)
PROTOCOL_DESCRIPTION: Antiglycation activity (BSA-glucose, AGE fluorescence)
Format: biochemical
pIC50: −log10 of the molar value.

COMPOUND | pIC50
CC(C)(C)c1cc(C(=O)N/N=C/c2ccccc2O)cc(C(C)(C)C)c1O [Compound 1] | 5.55
N=C(N)NN [Aminoguanidine, reference compound] | 2.29

###

Tested on: WI-38 (human fetal lung fibroblast)
PROTOCOL_DESCRIPTION: MTT-test WI-38
Assay type: cell-based
// reported IC50 for each item listed

COMPOUND | TEST_TARGET | RESULT_UNITS | IC50
CCC[CH2][Sn]1([CH2]CCC)[O]C(c2cc(C(C)(C)C)c(O)c(C(C)(C)C)c2)=NN=Cc2ccccc2[O]1 [Compound 4, Bu2SnL] | WI-38 (human fetal lung fibroblast) | µM | 10.8
CC(C)(C)c1cc(C2=NN=Cc3ccccc3[O][Sn]([c]3cc(C(C)(C)C)c(O)c(C(C)(C)C)c3)([c]3cc(C(C)(C)C)c(O)c(C(C)(C)C)c3)[O]2)cc(C(C)(C)C)c1O [Compound 7, (2,6-Di-tert-butylphenol)2SnL] | WI-38 (human fetal lung fibroblast) | µM | 10.6
N.N.[Cl][Pt][Cl] [Cisplatin, reference compound] | WI-38 (human fetal lung fibroblast) | µM | 16.3

###

Tested on: A549 (human lung adenocarcinoma)
PROTOCOL_DESCRIPTION: MTT-test A549
Assay type: cell-based
pIC50: −log10 of the molar value.
Examples of molecules with documented pIC50 follow.

MOLECULE | pIC50
N.N.[Cl][Pt][Cl] [Cisplatin, reference compound] | 4.98
CC(C)(C)c1cc(C2=NN=Cc3ccccc3[O][Sn]([C](C)(C)C)([C](C)(C)C)[O]2)cc(C(C)(C)C)c1O [Compound 5, Bu^t2SnL] | 4.37
C[CH2][Sn]1([CH2]C)[O]C(c2cc(C(C)(C)C)c(O)c(C(C)(C)C)c2)=NN=Cc2ccccc2[O]1 [Compound 3, Et2SnL] | 5.82
CCC[CH2][Sn]1([CH2]CCC)[O]C(c2cc(C(C)(C)C)c(O)c(C(C)(C)C)c2)=NN=Cc2ccccc2[O]1 [Compound 4, Bu2SnL] | 4.84

###

PROTOCOL_DESCRIPTION: Luminescence / photophysical properties
Format: physicochemical
MEASUREMENT_PARAMETERS: DMSO, 100 µM; λex = 365 nm
Doc: threshold 60% (exclusive). Items with Quantum Yield, DMSO Solution 100 µM beneath it return TRUE; others return FALSE.

SMILES_INPUT | LABEL
CC(C)(C)c1cc(C2=NN=Cc3ccccc3[O][Sn]([c]3cc(C(C)(C)C)c(O)c(C(C)(C)C)c3)([c]3cc(C(C)(C)C)c(O)c(C(C)(C)C)c3)[O]2)cc(C(C)(C)C)c1O | TRUE
CC(C)(C)c1cc(C2=NN=Cc3ccccc3[O][Sn]([c]3ccccc3)([c]3ccccc3)[O]2)cc(C(C)(C)C)c1O | FALSE
CC(C)(C)c1cc(C2=NN=Cc3ccccc3[O][Sn]([CH3])([CH3])[O]2)cc(C(C)(C)C)c1O | TRUE
C[CH2][Sn]1([CH2]C)[O]C(c2cc(C(C)(C)C)c(O)c(C(C)(C)C)c2)=NN=Cc2ccccc2[O]1 | TRUE
CC(C)(C)c1cc(C2=NN=Cc3ccccc3[O][Sn]([C](C)(C)C)([C](C)(C)C)[O]2)cc(C(C)(C)C)c1O | TRUE

###

Tested on: superoxide radical anion O2−• (xanthine-xanthine oxidase system)
PROTOCOL_DESCRIPTION: NBT-test, superoxide generated in the xanthine-xanthine oxidase system
Assay type: biochemical
MEASUREMENT_PARAMETERS: 0.006 mL of 5 mM compound in DMSO per 0.3 mL well; 600 s; 560 nm; negative = stimulation
# maps each entry to its I (NBT-Test)

SMILES_INPUT | I (NBT-Test), %
CC(C)(C)c1cc(C2=NN=Cc3ccccc3[O][Sn]([c]3ccccc3)([c]3ccccc3)[O]2)cc(C(C)(C)C)c1O | −28.0
CCC[CH2][Sn]1([CH2]CCC)[O]C(c2cc(C(C)(C)C)c(O)c(C(C)(C)C)c2)=NN=Cc2ccccc2[O]1 | −4.6
CC(C)(C)c1cc(C(=O)N/N=C/c2ccccc2O)cc(C(C)(C)C)c1O | 0.5
CC(C)(C)c1cc(C2=NN=Cc3ccccc3[O][Sn]([c]3cc(C(C)(C)C)c(O)c(C(C)(C)C)c3)([c]3cc(C(C)(C)C)c(O)c(C(C)(C)C)c3)[O]2)cc(C(C)(C)C)c1O | −40.5
CC(C)(C)c1cc(C2=NN=Cc3ccccc3[O][Sn]([C](C)(C)C)([C](C)(C)C)[O]2)cc(C(C)(C)C)c1O | 5.9
CC(C)(C)c1cc(C2=NN=Cc3ccccc3[O][Sn]([CH3])([CH3])[O]2)cc(C(C)(C)C)c1O | 6.3
C[CH2][Sn]1([CH2]C)[O]C(c2cc(C(C)(C)C)c(O)c(C(C)(C)C)c2)=NN=Cc2ccccc2[O]1 | 7.3
